The origin of these recorded values is the RepoRT retention time repository (doi:10.1007/s00216-021-03828-0).

Test: RP, Merck Supelco Ascentis Express C18, 100 × 2.1 mm, 2 µm, 39 °C, 0.3 mL/min, estimated dead time 0.73 min; A: water + 0.1% formic acid, pH 3; B: acetonitrile + 0.1% formic acid, pH 3; gradient (min/%B) 0/5 2/5 17/99.9 20/99.9
Conditions: stereoisomer not certain
Observable: LC retention time (min)

Completed entries (count: 6):
Molecule	Observable	Obs value
COc1cc(C=CC(=O)O)ccc1O [FERULATE]	LC retention time	5.39
NC(Cc1ccccc1)C(=O)O (stereo not given)	LC retention time	1.46
COC(=O)Cc1c[nH]c2ccccc12 [INDOLE-3-METHYL ACETATE]	LC retention time	8.12
CCCCCCSCC(NC(=O)CCC(N)C(=O)O)C(=O)NCC(=O)O (stereo not given)	LC retention time	6.32
CC(C)CCCC(C)C1CCC2C3=CC=C4CC(O)CCC4(C)C3CCC21C (stereo not given) [7-DEHYDROCHOLESTEROL]	LC retention time	15.1
COc1cc(CC(=O)O)ccc1O [HOMOVANILLATE]	LC retention time	4.5

A: CCCCCCCCCCCC=CCCCCC(=O)[O-] [PETROSELINATE]
B: O=CCc1c[nH]c2ccccc12
C: CC12CCC(=O)C=C1CCC1C2C(O)CC2(C)C(C(=O)CO)CCC12 (stereo not given)
D: Cc1c[nH]c(=O)[nH]c1=O
(Q) Endpoint returns the given molecules ordered by ascending LC retention time. Would you mind listing the labels in the order requested?
(A) D, B, C, A

====

Experiment: RP, Merck Supelco Ascentis Express C18, 100 × 2.1 mm, 2 µm, 39 °C, 0.3 mL/min, estimated dead time 0.73 min; A: water + 0.1% formic acid, pH 3; B: acetonitrile + 0.1% formic acid, pH 3; gradient (min/%B) 0/5 2/5 17/99.9 20/99.9
Settings: stereoisomer not certain
Observable: LC retention time (min)

Completed entries (count: 3):
Molecule	Observable	Obs value
Nc1nc2c(ncn2C2CC(O)C(CO)O2)c(=O)[nH]1 (stereo not given)	LC retention time	0.943
CCCCCCCCCCCC(=O)O [LAURATE]	LC retention time	13.3
N[C@@H](Cc1ccc(O)c([N+](=O)[O-])c1)C(=O)O	LC retention time	1.78

1: CC(=CCC1=C(C)C(=O)c2ccccc2C1=O)CCCC(C)CCCC(C)CCCC(C)C (stereo not given)
2: Cc1cc2nc3c(=O)[nH]c(=O)nc-3n(CC(O)C(O)C(O)CO)c2cc1C (stereo not given)
(Q) Between these two entries, 1 and 2 , state which has the higher LC retention time. # reply format: chosen label
(A) 1
(1: 14.1 min, 2: 4.65 min)

====

Assay: RP, Merck Supelco Ascentis Express C18, 100 × 2.1 mm, 2 µm, 40 °C, 0.35 mL/min, estimated dead time 0.63 min; A: water + 0.1% formic acid, pH 3; B: acetonitrile + 0.1% formic acid, pH 3; gradient (min/%B) 0/5 2/5 17/99.9 20/99.9
Conditions: stereoisomer not certain
Observable: LC retention time (min)

Completed entries (count: 5):
Compound	Unit of measurement	LC retention time
CCCCCCCC(=O)O [CAPRYLATE]	min	9.28
CC(C)CC(N)C(=O)O (stereo unspecified) [LEUCINE]	min	0.873
CCCCCCCCCCCCCC(=O)OCC(O)CO (stereo unspecified) [GLYCEROL-MYRISTATE]	min	13.6
CC(=O)NCCCC(=O)O [4-ACETAMIDOBUTANOATE]	min	0.923
CC(=O)Oc1ccccc1 [PHENYL ACETATE]	min	4.18

I: CC(=O)NC(CC(C)C)C(=O)O (stereo unspecified) [N-ACETYLLEUCINE]
II: Cc1c[nH]c(=O)[nH]c1=O [THYMINE]
III: CC(CCC(=O)NCC(=O)O)C1CCC2C3C(O)CC4CC(O)CCC4(C)C3CC(O)C12C (stereo unspecified) [GLYCOCHOLATE]
IV: CCCCCC=CCC=CCCCCCCCC(=O)O [LINOLEATE]
V: O=C(O)c1cc(=O)c2ccccc2[nH]1 [KYNURENATE]
(Q) Endpoint returns the given compounds ordered by ascending LC retention time. Would you mind listing the labels in the order requested?
(A) II, V, I, III, IV
(II: 0.903 min, V: 3.24 min, I: 4.63 min, III: 8.17 min, IV: 15.3 min)

====

Test: RP, Merck Supelco Ascentis Express C18, 100 × 2.1 mm, 2 µm, 40 °C, 0.2 mL/min, estimated dead time 1.1 min; A: water + 0.1% formic acid, pH 3; B: acetonitrile + 0.1% formic acid, pH 3; gradient (min/%B) 0/5 2/5 17/99.9 20/99.9
Settings: stereoisomer not certain
Observable: LC retention time (min)

Compound	LC retention time [min]
O=C(O)c1ccc(=O)[nH]c1 [6-HYDROXYNICOTINATE]	1.59
CC(=CCC1=C(C)C(=O)c2ccccc2C1=O)CCCC(C)CCCC(C)CCCC(C)C (centres undefined)	15.5
CC(=O)NCCCC(=O)O [4-ACETAMIDOBUTANOATE]	1.63
CC(C)CCCC(C)C1CCC2C3=CC=C4CC(O)CCC4(C)C3CCC21C (centres undefined) [7-DEHYDROCHOLESTEROL]	11.4
Nc1ncnc2c1ncn2C1CC(O)C(CO)O1 (centres undefined)	1.38
CCCCCCCCCCCCCC(=O)OCC(O)CO (centres undefined) [GLYCEROL-MYRISTATE]	15.3

P: O=C(O)c1ccc(O)cc1 [4-HYDROXYBENZOATE]
Q: CC(C)(CO)C(O)C(=O)NCCC(=O)O (centres undefined) [PANTOTHENATE]
(Q) Returns the identifier with the smallest measured LC retention time among P and Q . # reply format: chosen label
(A) Q
(Q: 2.71 min, P: 4.53 min)

1: CC1(O)CCOC(=O)C1 (centres undefined)
2: COc1ccc2[nH]cc(CCNC(C)=O)c2c1
(Q) Between these two entries, 1 and 2 , state which has the higher LC retention time. # reply format: chosen label
(A) 2
(2: 7 min, 1: 1.84 min)

I: O=C(O)c1cccnc1C(=O)O [QUINOLINATE]
II: COc1cc(CC(=O)O)ccc1O [HOMOVANILLATE]
(Q) Between these two entries, I and II , state which has the higher LC retention time. # reply format: chosen label
(A) II

====

Assay: RP, Merck Supelco Ascentis Express C18, 100 × 2.1 mm, 2 µm, 40 °C, 0.2 mL/min, estimated dead time 1.1 min; A: water + 0.1% formic acid, pH 3; B: acetonitrile + 0.1% formic acid, pH 3; gradient (min/%B) 0/5 2/5 17/99.9 20/99.9
Conditions: stereoisomer not certain
Observable: LC retention time (min)

Molecule	Unit of measurement	LC retention time
CC(C)CC(=O)C(=O)O [KETOLEUCINE]	min	4.65

1: O=c1[nH]c(=O)c2ncn(C3OC(CO)C(O)C3O)c2[nH]1 (configuration not stated) [XANTHOSINE]
2: CCCCCCCCCCCC(=O)OC(CC(=O)[O-])C[N+](C)(C)C (configuration not stated) [LAUROYLCARNITINE]
3: N[C@@H](Cc1ccc(O)c([N+](=O)[O-])c1)C(=O)O [3-NITRO-L-TYROSINE]
4: O=C(O)c1ccccc1 [BENZOATE]
(Q) Endpoint returns the given molecules ordered by ascending LC retention time. Would you mind listing the labels in the order requested?
(A) 1, 3, 4, 2

====

Experiment: RP, Merck Supelco Ascentis Express C18, 100 × 2.1 mm, 2 µm, 40 °C, 0.35 mL/min, estimated dead time 0.63 min; A: water + 0.1% formic acid, pH 3; B: acetonitrile + 0.1% formic acid, pH 3; gradient (min/%B) 0/5 2/5 17/99.9 20/99.9
Details: stereoisomer not certain
Observable: LC retention time (min)

Completed entries (count: 5):
Molecule	Unit of measurement	LC retention time
CCCCCCCCCCCC(=O)O [LAURATE]	min	12.9
CC(=O)NC(CS)C(=O)O (stereo not given)	min	1.09
CCCCCC=CCC=CCC=CCCCCC(=O)O [GAMMA-LINOLENATE]	min	14.5
CCCCCCCCCCCC(=O)OC(CC(=O)[O-])C[N+](C)(C)C (stereo not given)	min	9.5
Nc1nc2c(ncn2C2OC(COP(=O)(O)OP(=O)(O)OC3OC(CO)C(O)C(O)C3O)C(O)C2O)c(=O)[nH]1 (stereo not given) [GUANOSINE DIPHOSPHATE MANNOSE]	min	0.757

1: CC(=CC(=O)O)C(=O)O [2-METHYLMALEATE]
2: Cc1cc2nc3c(=O)[nH]c(=O)nc-3n(CC(O)C(O)C(O)COP(=O)(O)OP(=O)(O)OCC3OC(n4cnc5c(N)ncnc54)C(O)C3O)c2cc1C (stereo not given)
(Q) Returns the identifier with the smallest measured LC retention time among 1 and 2 . # reply format: chosen label
(A) 1
(1: 1.35 min, 2: 3.77 min)

a: C=C(CC(=O)O)C(=O)O [ITACONATE]
b: O=C(O)Cc1cccc(O)c1 [3-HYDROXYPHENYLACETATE]
(Q) Returns the identifier with the smallest measured LC retention time among a and b . # reply format: chosen label
(A) a
